assay.text: Thermodynamic solubility of the compound in 1-octanol solution measured after 24 hrs by UV-HPLC analysis
Type: physicochemical
condition.summary: read-out: Therm_solubility
Fulfilled means recorded solubility thermodynamic at 24 h is 5 mM or above; Not fulfilled means it is below 5 mM.

# compound.structure, class.label
rows = [
    ("COc1cc2ncnc(Nc3ccc(F)c(Cl)c3)c2cc1OCCCN1CCOCC1", "Not fulfilled"),
    ("C=CC(=O)N(c1cccc(Cl)c1F)c1ncnc2cc(OC)c(OCCCN3CCOCC3)cc12", "Fulfilled"),
]

Task item: Reported solubility thermodynamic at 24 h at or above 5 mM? "C=CC(=O)N(c1ccc(Cl)c(Cl)c1)c1ncnc2cc(OC)c(OCCCN3CCOCC3)cc12"
Reply: Not fulfilled

Task item: Hi team, for "COc1cc2ncnc(Nc3cccc(Cl)c3F)c2cc1OC(=O)N1CCN(C)C[C@H]1C" , is the recorded solubility thermodynamic at 24 h at or above 5 mM?
Reply: Not fulfilled

Task item: Item "COc1cc2ncnc(Nc3ccc(Cl)c(Cl)c3)c2cc1OCCCN1CCOCC1" with solubility thermodynamic at 24 h of 5 mM or above?
Reply: Not fulfilled
